# Test system: C9
# experiment_summary: MTT cell proliferation assay
# Format: cell-based, human
# conditions: C9, 3 days; read-out: Cytotoxic effect (MTT) IC50
# Protocol: Growth studies were performed using the [3-(4,5 dimethylthiazol-2-yl)-2,5-diphenyl-2H-tetrazolium bromide] (Sigma) calorimetric assay. About 1500 to 5000 cells, according to the cell line, were seeded in a 96-well culture plate 24 hours before adding increasing concentrations of BA016DD537 or BA016FZ539. The plate was incubated at 37° C. for 3 days. […] The absorbance was determined using an Integrated EIA Management System (Labsystem) at a wavelength of 570 nm. […]
observed_property: IC50 (nM)
Dear colleague, please return just the value in nM, with no unit written.

INPUT: Under C9, report IC50 for CS(=O)(=O)[O-].Cc1c2cc[n+](CCN3CCCCC3)cc2c(C)c2c1[nH]c1ccc(O)cc12
OUTPUT: 2100

Source listed as patent US20090197906A1.
